Taken from PubChem BioAssay (NCI).

test: NCI Yeast Anticancer Drug Screen. Data for the sgs1 strain (AID 173);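 further: 0% = growth of vehicle-only control cultures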; conditions: S. cerevisiae sgs1 mutant, at 1.2 µM, hits give high values
About 79,000 compounds went through this panel and 15% of them were active in at least one assay; those are over-represented in the sample as a whole.
Consider the following compounds; for each one, report its growth inhibition.
Answers are plain numbers, in %.

Guide cases for growth inhibition, answers given:
[[record]]
compound = "O=C1/C(=C/c2ccccc2)CCCC1CN1CCCCC1 (stereo not given)"
property_measured = "growth inhibition"
unit_descriptor = "%"
numeric_result = 29

[[record]]
compound = "CN(C)CCNc1ccc2ncnc3c2c1C(=O)c1ccccc1-3"
property_measured = "growth inhibition"
unit_descriptor = "%"
numeric_result = 9

[[record]]
compound = "c1ccc(Cc2cc(-c3ccccc3)n[nH]2)cc1"
property_measured = "growth inhibition"
unit_descriptor = "%"
numeric_result = -3

[[record]]
compound = "O=C(NNc1ccccc1)c1ccc(Cl)c(Cl)c1"
property_measured = "growth inhibition"
unit_descriptor = "%"
numeric_result = -3


Next up:
Prompt line: Form field: reported growth inhibition of `COc1oc(C(=O)NC2CCCCC2)c(-c2ccc(Cl)cc2)c1S(=O)(=O)c1ccccc1`
Response line: -4

====

assay: NCI Yeast Anticancer Drug Screen. Data for the rad50 strain (AID 155);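 further: 0% = growth of vehicle-only cultures of the same strain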; conditions: S. cerevisiae rad50 strain growth inhibition; at 100.0 µM
This is part of a sample that, as a whole, favours compounds with a hit. Of some 79,000 tested, about 15% had one in any assay. Activity calls are given as the source filed them. Cut-off read from the data, not from the text of the source: active = growth inhibition above about 70%; inactive = the rest.
Hi! Could you answer with just one of these? active, inactive

Here are 4 compounds together with their reported answers.
[[record]]
compound = "CCOc1c(N=Nc2ccccc2OC)c(C)nn1C(=S)S"
label_value = "inactive"

[[record]]
compound = "O=P(NC1CCCCC1)(OCc1ccccc1)OCc1ccccc1"
label_value = "inactive"

[[record]]
compound = "CCC(C)(C)c1ccc(Oc2cccc(C(=O)O)c2)cc1"
label_value = "active"

[[record]]
compound = "COC(=O)/C=C(/C(=O)OC)C(Cl)(Cl)Cl"
label_value = "active"


Prompt line: Which outcome did this test record for the compound `O=c1ccc(=O)n(-c2ccccc2)[nH]1` ?
Response line: active

Prompt line: And what about the compound `Cc1ccc(NCCNCCO)c2c(=O)c3cc(O)ccc3sc12` ?
Response line: active

Prompt line: And what about the compound CN(C)CCOC1(Cc2ccc(Cl)cc2Cl)CCC(C(C)(C)C)CC1 (stereo not drawn) ?
Response line: active

Prompt line: And what about the compound `Cc1sc2ccc3ccccc3c2[n+]1C` ?
Response line: active

====

assay: NCI Yeast Anticancer Drug Screen. Data for the cln2 rad14 strain (AID 165);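 further: 0% = growth equal to vehicle treated cultures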; settings: S. cerevisiae cln2 rad14 strain, at 50.0 µM (retest, dose inferred, filed as 5.0), hits give high values
The panel holds about 79,000 compounds, 15% with a hit somewhere; the sample as a whole holds those more often.
Values of growth inhibition greater than or equal to 80% map to 1; values below map to 0.

Here are 5 compounds together with their reported answers.
[[record]]
compound = "COC1=C(OC)C(=O)C(Sc2ccc3ccccc3c2)=CC1=O"
label_value = 0

[[record]]
compound = "CCC(=O)c1cc(C(=O)C(=S)SC)cc(C(=O)C(=S)SC)c1"
label_value = 0

[[record]]
compound = "C[CH2][Sn]([CH2]C)([O]C(=O)C(N)Cc1ccccc1)[O]C(=O)C(N)Cc1ccccc1 (centres undefined)"
label_value = 0

[[record]]
compound = "C=C(C(=C)n1nnc(C(=O)OC)c1C(=O)OC)n1nnc(C(=O)OC)c1C(=O)OC"
label_value = 0

[[record]]
compound = "Cc1ccc2c3ccc4c(c3n(C)c2c1)C(=O)C=CC4=O"
label_value = 0


Prompt line: Hello, I need to know if `COC(=O)Oc1cc(Cl)c(Cl)cc1Cl` has measured growth inhibition not below 80%. Thanks!
Response line: 0

Prompt line: And what about the compound `CCOC(=O)/C(=C\c1ccc(C#N)cc1)C(C)=O` ?
Response line: 1

Prompt line: And what about the compound `COc1oc(C(=O)NC2CCCCC2)c(-c2ccc(Cl)cc2)c1S(=O)(=O)c1ccccc1` ?
Response line: 1

Prompt line: And what about the compound Cc1c2cccc(Sc3ccccc3)c2c2c3c(cccc13)[S+](c1ccccc1)C2 (centres undefined) ?
Response line: 1

====

test: NCI Yeast Anticancer Drug Screen. Data for the CLN2oe strain (AID 163);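 further: 0% = growth of vehicle-only control cultures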; conditions: S. cerevisiae CLN2oe strain, at 11.0 µM
The panel holds about 79,000 compounds, 15% with a hit somewhere; the sample as a whole holds those more often. Activity calls are given as the source filed them. Rule as the data show it: active = growth inhibition above about 70%; inactive = the rest.
Hi! Could you answer with just one of these? active, inactive

[[record]]
compound = "COc1ccc(C2C3=C(COC3=O)OC(C)(C)Oc3cc4c(cc32)OCO4)cc1OC (stereo unspecified)"
label_value = "inactive"

[[record]]
compound = "COC(=O)/C=C(/C(=O)OC)C(Cl)(Cl)Cl"
label_value = "inactive"

[[record]]
compound = "O=C1C(=O)c2ccccc2C(O)=C1C(C1=C(O)c2ccccc2C(=O)C1=O)c1ccc(Cl)cc1"
label_value = "inactive"

[[record]]
compound = "COc1ccc2[nH]cc([C@@H]3C4CCC(C4)[C@H]3NCc3cccc(CN[C@H]4C5CCC(C5)[C@@H]4c4c[nH]c5ccc(OC)cc45)c3)c2c1"
label_value = "inactive"

[[record]]
compound = "O=c1ccc2ccccc2c2ccccc12"
label_value = "active"


Prompt line: Which outcome did this test record for the compound Cc1ccc(NC(=O)/C(CC2N=c3c(ccc4c(O)c5ccccc5c(O)c34)=NC2O)=N/NC(C)(C)C)cc1 (stereo unspecified) ?
Response line: inactive

Prompt line: And what about the compound `CCCCOCn1c(=O)[nH]c(=O)c2cc(Br)ccc21` ?
Response line: inactive

Prompt line: And what about the compound COC(=O)CC1CCc2c(ccc3ccccc23)C1(C)C(=O)OC (stereo unspecified) ?
Response line: inactive

Prompt line: And what about the compound `CC(C)(C)C1=CC(=CC=C2C=CN(CCCCCCCCCCCO)C=C2)C=C(C(C)(C)C)C1=O` ?
Response line: active

Prompt line: And what about the compound `CCCCOP(=O)(CCCP(=O)(OCCCC)OCCCC)OCCCC` ?
Response line: inactive

Prompt line: And what about the compound `COc1cc(CSc2ccc(O)cc2)cc(O)c1O` ?
Response line: inactive

Prompt line: And what about the compound COc1ccc(C(NCCNC(c2ccc(OC)c(OC)c2)c2cc3c(cc2O)OCO3)c2cc3c(cc2O)OCO3)cc1OC (stereo unspecified) ?
Response line: inactive

Prompt line: And what about the compound `CCN(CC)Cc1cc(Nc2c3ccccc3nc3c2[nH]c2ccccc23)cc(CN(CC)CC)c1O` ?
Response line: inactive

Prompt line: And what about the compound `CC[n+]1oc(C(=O)c2ccc(Cl)cc2)c(-c2ccccc2)c1-c1ccccc1.[Cl][Fe]([Cl])([Cl])[Cl]` ?
Response line: inactive

Prompt line: And what about the compound `COc1ccc(N=CN(C)C)c(C)c1` ?
Response line: inactive

Prompt line: And what about the compound `c1ccc(-c2cnc3ccccc3c2)cc1` ?
Response line: inactive

====

assay: NCI Yeast Anticancer Drug Screen. Data for the mec2-1 strain (AID 157); settings: S. cerevisiae mec2-1 strain, at 33.0 µM, hits give high values
Compounds without any hit were thinned out: in the full panel of roughly 79,000, 15% have a hit.
Consider the following compounds; for each one, report its growth inhibition.
Numbers only, in %.

Guide cases for growth inhibition, answers given:
[[record]]
compound = "CCCCOCn1c(=O)[nH]c(=O)c2cc(Br)ccc21"
property_measured = "growth inhibition"
unit_descriptor = "%"
numeric_result = 11

[[record]]
compound = "N#CC(=Nc1ccccc1F)Nc1ccccc1F"
property_measured = "growth inhibition"
unit_descriptor = "%"
numeric_result = 8

[[record]]
compound = "CC1CC(C)(C)CC(OCCN2CCCCC2)(c2ccccc2)C1 (centres undefined)"
property_measured = "growth inhibition"
unit_descriptor = "%"
numeric_result = 11


Next up:
Prompt line: Form field: reported growth inhibition of `c1ccc2cc(NCNc3ccc4ccccc4c3)ccc2c1`
Response line: 14

====

experiment: NCI Yeast Anticancer Drug Screen. Data for the sgs1 strain (AID 173);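 further: 0% = growth of vehicle-only control cultures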; conditions: S. cerevisiae sgs1 mutant, at 11.0 µM, hits give high values
About 79,000 compounds went through this panel and 15% of them were active in at least one assay; those are over-represented in the sample as a whole.
Consider the following molecules; for each one, report its growth inhibition.
Numbers only, in %.

Here are 7 molecules. What values of growth inhibition were reported for them?
1. CN(C)C=NC1CCC(C(C)(C)C)CC1 (centres undefined)
2. CCOC(=O)C#Cc1ccc([N+](=O)[O-])cc1
3. NC1CCCCC1N.Nc1c(N=Nc2ccc(-c3ccc(N=Nc4cc(S(=O)(=O)[O-])c5ccccc5c4N)cc3)cc2)cc(S(=O)(=O)[O-])c2ccccc12.[OH3+].[OH3+].[Pt+4]
4. CC(C)(C)[Si](C)(C)OCC1CCC(n2cnc3c(NC(=O)c4ccccc4)ncnc32)O1 (centres undefined)
5. COc1cc([C@@H]2c3cc4c(cc3[C@H](OC3OC5COC(C(C)C)OC5C(O)C3O)C3COC(=O)[C@@H]32)OCO4)cc(OC)c1O (some centres undefined)
6. CC(C)C(C)/C=C\C(C)C1CCC2C3=CC=C4CC(O)CCC4(C)C3CCC21C (centres undefined)
7. CC(O)=NC(Cc1ccc2ccccc2c1)C(O)=NC(Cc1ccc(Cl)cc1)C(O)=NC(Cc1c[nH]c2ccccc12)C(O)=NC(CO)C(O)=NC(Cc1ccc(O)cc1)C(O)=NC(CCCN=C(N)N)C(O)=NC(CC(C)C)C(O)=NC(CCCN=C(N)N)C(=O)N1CCCC1C(O)=NC(C)C(=N)O (centres undefined)

Response line:
1. 55
2. 5
3. 95
4. 0
5. 1
6. -3
7. -17

Here are 8 molecules. What values of growth inhibition were reported for them?
1. N#CC1=C(N)N(/N=C/c2ccccc2)C(c2ccccc2)C1(C#N)C#N (centres undefined)
2. CCN(CC)CCNc1ccc([N+](=O)[O-])c2nc3ccccc3c(N)c12
3. C[C@]12CC[C@H](O)CC1=CC[C@@H]1C2CC[C@]2(C)C(=O)NC(=O)CC12 (some centres undefined)
4. O=[N+]([O-])c1ccc2c(c1)/C(=N/N=C1c3ccccc3Cc3ccccc31)c1cc([N+](=O)[O-])cc([N+](=O)[O-])c1-2
5. O=c1ccc(=O)n(-c2ccccc2)[nH]1
6. Cc1cccc(C(C)(C)C)c1NC(=O)C(C#N)C1=C(Cl)C(=O)c2ccccc2C1=O (centres undefined)
7. O=C(CSC(=S)N1CCCCC1)Nc1nc2c(s1)CCCC2
8. CN(C)CCNC(=O)c1cccc2c1Oc1c(cccc1[N+](=O)[O-])O2

Response line:
[80, 6, 90, 99, 58, 45, 15, -1]

Here are 5 molecules. What values of growth inhibition were reported for them?
1. CC(=O)OC1CC2C(C)(C)C(=O)C=C[C@]2(C)C2CCC3(C)C(=CCC3[C@H](CO)C[C@H](O)C(=O)C(C)(C)O)[C@]12C (some centres undefined)
2. CC[N+]1(C)CCC(O)(c2ccc(OC)cc2)C(C(=O)c2ccc(OC)cc2)C1 (centres undefined)
3. CN(C)Cc1cc(N=Nc2ccc(Cl)cc2)ccc1OC(=O)c1ccccc1
4. CN(C)c1ccc(C2CC(C)(O)Oc3cc4c(cc32)OCO4)cc1 (centres undefined)
5. N#CNC(N)=Nc1cc2ccccc2c2ccccc12

Response line:
60
-49
9
23
87

Here are 4 molecules. What values of growth inhibition were reported for them?
1. CCOC(=N)c1ccc(O)c(OC)c1
2. Cc1c(C(C)C)cc(OCCO)cc1C(C)C
3. COc1cc(C2SCC(=O)N2c2ccc(-c3ccc(-n4c(-c5ccccc5)nc5ccccc5c4=O)cc3)cc2)ccc1O (centres undefined)
4. CCOC(=O)C1N=[N+](c2ccccc2)C(=O)/C1=C\n1c(=S)[nH]c2ccc([N+](=O)[O-])cc21 (centres undefined)

Response line:
1. -4
2. -1
3. 0
4. -9
